# Target under test: Neu5Ac(a2-8)Neu5Ac(a2-8)Neu5Ac(a2-3)Gal(b1-4)Glc
# Test details: glycan array binding signal (z-score within array); higher = stronger binding
# Experimental context: glycan notation: IUPAC condensed, linker removed
This is one part of a sample in which the strongest signals are shown more often than they occur.
Please go through the items and note down their glycan array binding signal (z-score).
Numbers only.

Known results for binders:
[[record]]
binder = "HHL-2 (Homo sapiens), P07307 (protein) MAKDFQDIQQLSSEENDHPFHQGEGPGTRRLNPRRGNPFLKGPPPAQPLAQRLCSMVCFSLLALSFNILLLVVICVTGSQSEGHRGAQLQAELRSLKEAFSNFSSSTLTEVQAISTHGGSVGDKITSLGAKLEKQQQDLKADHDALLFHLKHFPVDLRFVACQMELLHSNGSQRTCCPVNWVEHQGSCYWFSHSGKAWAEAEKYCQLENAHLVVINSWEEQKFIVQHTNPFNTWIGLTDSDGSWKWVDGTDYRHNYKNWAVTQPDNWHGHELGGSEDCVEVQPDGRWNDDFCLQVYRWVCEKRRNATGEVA"
value_reported = 3.59

[[record]]
binder = "IRp60B (Homo sapiens), Q9UGN4-3 (protein) MWLPWALLLLWVPAGDHSELSQNPKQAATQSELHYANLELLMWPLQEKPAPPREVEVEYSTVASPREELHYASVVFDSNTNRIAAQRPREEEPDSDYSVIRKT"
value_reported = 1.18


Consider now this further binder.
q: Dear colleague, I am looking for the recorded glycan array binding signal (z-score) of the following binder: Cohesin-hDECTIN-1 (Homo sapiens) (protein) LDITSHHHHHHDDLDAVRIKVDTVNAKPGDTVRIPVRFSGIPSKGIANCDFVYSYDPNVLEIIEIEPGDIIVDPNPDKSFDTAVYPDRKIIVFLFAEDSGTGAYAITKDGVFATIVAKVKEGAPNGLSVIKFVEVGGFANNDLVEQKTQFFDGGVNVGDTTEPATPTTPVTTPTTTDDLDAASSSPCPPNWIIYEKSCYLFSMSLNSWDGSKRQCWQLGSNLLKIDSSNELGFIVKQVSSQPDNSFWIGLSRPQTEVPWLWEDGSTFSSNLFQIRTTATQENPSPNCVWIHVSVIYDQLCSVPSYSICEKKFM
a: -0.569

Hey, just so you know, these numbers are from the supplement of paper PMC8728848.
